# Test system: EKVX
# Experimental details: Growth inhibition of human EKVX cells after 48 hrs
# Assay type: functional
Parameter: GI50

Example molecules with recorded GI50:
Structure smiles string: NNC(=O)c1c(NC(=O)NS(=O)(=O)c2ccccc2)sc2c1CCCCC2
GI50: > 100 µM
//
Structure smiles string: CN1CCN(C(=O)c2c(NC(=O)NS(=O)(=O)c3ccccc3)sc3c2CCCCC3)CC1
GI50: > 100 µM

Ask: Recorded GI50 of CCCNC(=O)c1c(NC(=O)NS(=O)(=O)c2ccccc2)sc2c1CCCCC2 , please.
Reply: 6.2 µM

====

Provide the recorded GI50 for the entries that follow.
# Tested on: EKVX
# Experimental details: Growth inhibition of human EKVX cells after 48 hrs
# Format: functional

List reported GI50 for each of these molecules:
1. O=C(Nc1sc2c(c1C(=O)NNc1ccccc1)CCCCC2)NS(=O)(=O)c1ccccc1
2. O=C(Nc1sc2c(c1C(=O)N1CCN(c3ccccc3)CC1)CCCCC2)NS(=O)(=O)c1ccccc1
3. O=c1[nH]c2sc3c(c2c(=O)n1S(=O)(=O)c1ccccc1)CCCCC3
4. O=C(Nc1sc2c(c1C(=O)NNc1ccc(Br)cc1)CCCCC2)NS(=O)(=O)c1ccccc1
5. O=C(Nc1sc2c(c1C(=O)NNc1ccc(Cl)cc1)CCCCC2)NS(=O)(=O)c1ccccc1

Reply:
> 100 µM
> 100 µM
3.8 µM
> 100 µM
> 100 µM
